Tested on: Escherichia coli (NIHJ)
Assay: Sterilization effect determination test (Fujimoto's modified method of the Kelsey-Sykes method)
Type: cell-based
Design: key: D: There is no sterilization effect.; C: There is a sterilization effect in step (1) but no sterilization effect in step (2).; B: There is a sterilization effect up to step (2) but no sterilization effect in step (3).; A: There is a sterilization effect up to step (3)
Settings: Table 1; compositions of calcinated calcium and ethanol, water remainder; 20° C.; steps (1)-(3)
reported.endpoint: Sterilization effect

Take a look at these entries with their results.
{"compound": "CCO [Ethanol 50 wt %, ethanol]", "system.under.test": "Escherichia coli (NIHJ)", "Sterilization effect": "B"}
{"compound": "CCO [Ethanol 10 wt %, ethanol]", "system.under.test": "Escherichia coli (NIHJ)", "Sterilization effect": "D"}
{"compound": "CCO [Ethanol 20 wt %, ethanol]", "system.under.test": "Escherichia coli (NIHJ)", "Sterilization effect": "D"}
{"compound": "CCO [Ethanol 5 wt %, ethanol]", "system.under.test": "Escherichia coli (NIHJ)", "Sterilization effect": "D"}
{"compound": "CCO [Ethanol 100 wt %, ethanol]", "system.under.test": "Escherichia coli (NIHJ)", "Sterilization effect": "A"}

Would you mind telling me what Sterilization effect value was observed for CCO [Ethanol 75 wt %, ethanol] ?
B

---

System: Staphylococcus aureus (209P)
Assay: Sterilization effect determination test (Fujimoto's modified method of the Kelsey-Sykes method)
Assay type: cell-based
Set-up: key: D: There is no sterilization effect.; C: There is a sterilization effect in step (1) but no sterilization effect in step (2).; B: There is a sterilization effect up to step (2) but no sterilization effect in step (3).; A: There is a sterilization effect up to step (3)
Settings: Table 2; compositions of calcinated calcium and ethanol, water remainder; 20° C.; steps (1)-(3)
reported.endpoint: Sterilization effect

{"compound": "CCO [Ethanol 10 wt %, ethanol]", "Sterilization effect": "D"}
{"compound": "CCO [Ethanol 20 wt %, ethanol]", "Sterilization effect": "D"}
{"compound": "CCO [Ethanol 50 wt %, ethanol]", "Sterilization effect": "D"}
{"compound": "CCO [Ethanol 100 wt %, ethanol]", "Sterilization effect": "A"}
{"compound": "CCO [Ethanol 5 wt %, ethanol]", "Sterilization effect": "D"}

Kindly review the next compound as well.
Would you mind telling me what Sterilization effect value was observed for CCO [Ethanol 75 wt %, ethanol] ?
B
